# Test system: Phytophthora
# experiment description: D-3b systemic action against Phytophthora on potato plants
# Format: in vivo
# condition details: test D-3b, potato plants (Bintje), soil watering 48 hours before infection, untreated plants attack 80 to 100%, read-out: inhibit fungal infestations
result type: inhibition at 200 ppm

# molecule, observed measurement
records = [
    ("C#CCOc1ccc(CCNC(=O)C(Cc2ccc(F)cc2)OCC#C)cc1OC (stereo not shown) [Compound E1.06]", "80 to 100%"),
    ("C#CCOc1ccc(CCNC(=O)C(Cc2ccc(Cl)cc2)OCC#C)cc1OC (stereo not shown) [Compound E1.10]", "80 to 100%"),
    ("C#CCOc1ccc(CCNC(=O)C(Cc2ccc(Br)cc2)OCC#C)cc1OC (stereo not shown) [Compound E1.15]", "80 to 100%"),
]

-- ask Determine its reported inhibition at 200 ppm: C#CCOc1ccc(CCNC(=O)C(Cc2ccccc2)OCC#C)cc1OC (stereo not shown) [Compound E1.03]
-- reply 80 to 100%

Cited source: patent US7700522B2
